Reference source for all entries: patent US12180226B2

Molecular target: RIPK1 (recombinant GST-RIPK1 kinase domain, residues 1-327) (Homo sapiens (Human), UniProt Q13546)
Sequence (Q13546 1-327): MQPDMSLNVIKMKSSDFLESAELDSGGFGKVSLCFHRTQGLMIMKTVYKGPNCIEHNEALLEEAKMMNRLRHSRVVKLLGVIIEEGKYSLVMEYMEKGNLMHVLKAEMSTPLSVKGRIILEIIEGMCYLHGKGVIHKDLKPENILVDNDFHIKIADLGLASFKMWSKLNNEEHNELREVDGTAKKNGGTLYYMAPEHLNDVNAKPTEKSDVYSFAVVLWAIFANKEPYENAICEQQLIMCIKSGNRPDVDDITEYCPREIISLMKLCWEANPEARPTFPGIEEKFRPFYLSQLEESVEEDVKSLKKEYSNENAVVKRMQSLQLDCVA
Assay: RIPK1-ADP-Glo Enzymatic Assay
Format: biochemical
Conditions: ADP-Glo; 25 nM GST-RIPK1, 300 μM ATP; assay lower limit ~25 nM; read-out: RIPK1 V0 Ec50
Counter-ions that a name gives are not always drawn.
readout-kind: EC50

Recorded EC50, per entry:
O=C1N2[C@@H](CC[C@H]2c2cc(F)cc(F)c2)OC12CCN(c1ccc(Br)c3ccnn13)CC2 [Example 13.6, TFA salt]
< 25 nM
O=C1N2C(=NC13CCN(c1ccnc4c(F)cnn14)CC3)CC[C@H]2c1cc(F)cc(F)c1
< 25 nM
Cc1ocnc1C(=O)N1CCC2(CC1)O[C@@H]1CC[C@@H](c3cccc(F)c3)N1C2=O
42.7 nM
N#Cc1ccc(N2CCC3(CC2)O[C@@H]2CC[C@@H](c4cc(F)cc(F)c4)N2C3=O)cc1
< 25 nM
Cn1ccc(C(=O)N2CCC3(CC2)O[C@@H]2CC[C@@H](c4cc(F)cc(F)c4)N2C3=O)c1
26.9 nM
COc1cnc(N2CCC3(CC2)O[C@@H]2CC[C@@H](c4cc(F)cc(F)c4)N2C3=O)nc1
80.7 nM

**Q:** State, in one line, measured EC50 of N#Cc1cccc(CN2CCC3(CC2)O[C@@H]2CC[C@@H](c4cc(F)cc(F)c4)N2C3=O)c1
**A:** 234 nM

###

Target: RIPK1 (recombinant GST-RIPK1 kinase domain, residues 1-327) (Homo sapiens (Human), UniProt Q13546)
Assay: RIPK1-ADP-Glo Enzymatic Assay
Format: biochemical
Conditions: ADP-Glo; 25 nM GST-RIPK1, 300 μM ATP; assay lower limit ~25 nM; read-out: RIPK1 V0 Ec50
Entries and their EC50
Answer with a number only, understood to be in nM.

O=C(c1cccc2c1CCC2)N1CCC2(CC1)O[C@@H]1CC[C@@H](c3cc(F)cc(F)c3)N1C2=O
62.2
N#Cc1cc([C@@H]2CC[C@H]3OC4(CCN(C(=O)c5ccccc5)CC4)C(=O)N32)ccc1F
196
O=C(c1ccccc1)N1CCC2(CC1)O[C@@H]1CC[C@@H](c3cncc(F)c3)N1C2=O
121
Cc1nc(C(=O)N2CCC3(CC2)O[C@@H]2CC[C@@H](c4cccc(F)c4)N2C3=O)c(C)o1
619
O=C1N2[C@@H](CC[C@H]2c2ccccc2F)OC12CN(S(=O)(=O)c1cccc(F)c1)C2
421

**Q:** State, in one line, measured EC50 of C#Cc1cc(C(=O)N2CCC3(CC2)O[C@@H]2CC[C@@H](c4cc(F)cc(F)c4)N2C3=O)ccn1
**A:** 39.2

###

Target: RIPK1 (recombinant GST-RIPK1 kinase domain, residues 1-327) (Homo sapiens (Human), UniProt Q13546)
Assay: RIPK1-ADP-Glo Enzymatic Assay
Assay type: biochemical
Conditions: ADP-Glo; 25 nM GST-RIPK1, 300 μM ATP; assay lower limit ~25 nM; read-out: RIPK1 V0 Ec50
Where a name gives a salt, the structure may show the parent alone.
Entries and their EC50
Answer with a number only, understood to be in µM.

N#Cc1ccc(N2CCC3(CC2)C[C@@H]2OC[C@@H](c4ccccc4)N2C3=O)c(F)c1
0.0669
O=C1N2[C@@H](CC[C@H]2c2cc(F)cc(F)c2)OC12CCN(c1ccnc3ncnn13)CC2 [Example 4.83, TFA salt]
0.363

**Q:** State, in one line, measured EC50 of Cn1cc(C(=O)N2CCC3(CC2)O[C@@H]2CC[C@@H](c4cc(F)cc(F)c4)N2C3=O)cn1
**A:** 0.509

**Q:** State, in one line, measured EC50 of N#Cc1ncc(N2CCC3(CC2)O[C@@H]2CC[C@@H](c4cc(F)cc(F)c4)N2C3=O)cn1
**A:** 0.25

**Q:** State, in one line, measured EC50 of O=C1N2[C@@H](CC[C@H]2c2ccccc2)OC12CCN(c1cc(-c3ccco3)ccn1)CC2
**A:** 0.0264

**Q:** State, in one line, measured EC50 of O=C(c1cnc(C(F)(F)F)cn1)N1CCC2(CC1)O[C@@H]1CC[C@@H](c3cc(F)cc(F)c3)N1C2=O
**A:** 0.388

**Q:** State, in one line, measured EC50 of NC(=O)c1ccc(N2CCC3(CC2)O[C@@H]2CC[C@@H](c4ccccc4)N2C3=O)nc1
**A:** 0.0362

**Q:** State, in one line, measured EC50 of N#Cc1cn[nH]c1C(=O)N1CCC2(CC1)O[C@@H]1CC[C@@H](c3cc(F)cc(F)c3)N1C2=O
**A:** 0.459

**Q:** State, in one line, measured EC50 of O=C1N2[C@@H](CC[C@H]2c2cnccn2)OC12CCN(c1ccnc3c(F)cnn13)CC2 [Example 4.140]
**A:** 0.0256
